# Tested on: A. baumannii NCTC 13423
# Assay Method Text: Antibacterial activity, pre-exposure
# Format: cell-based, Acinetobacter baumannii
# Experimental Setup: A. baumannii NCTC 13423, pre-exposure, 25 µM, ± SD
API: label(entry) gives 1 if the entry's Average inhibition %, biofilms viability is strictly smaller than 4%; on equality or larger values it gives -1.

INPUT: Consider `CCCCCCCCCCc1ccc(CCC(N)(CO)CO)cc1` . Does its Average inhibition %, biofilms viability lie strictly below 4%?
OUTPUT: 1

INPUT: Below 4% on Average inhibition %, biofilms viability? Entry `CCCCCCCCc1ccc2nc(CCC(N)(CO)CO)ccc2c1`
OUTPUT: -1

INPUT: Take the compound `CCCCCCCCCCOc1ccc(CCC(N)(CO)CO)cc1` and say whether its Average inhibition %, biofilms viability is less than 4%.
OUTPUT: 1

INPUT: Find out if reported Average inhibition %, biofilms viability for CCCCCCCCCCc1ccc(C(O)CC(N)(CO)CO)cc1 (centres unmarked) is less than 4%
OUTPUT: -1

INPUT: Is Average inhibition %, biofilms viability of `CCCCCCCCCCc1ccc2nc(CC(N)(CO)CO)ccc2c1` strictly below 4%?
OUTPUT: -1

* * *

# Assay Method Text: Cytotoxicity, resazurin staining assay
# Assay type: cell-based, human
# Experimental Setup: human, HEp-2 cells; 24 h incubation
// CC50 at 24 h lookup, one value per entry
Field: numeric (µM). Do not append units.

[[record]]
molecule = "CCCCCCCCc1ccc2ccc(CC(N)(CO)CO)nc2c1 [Compound 82]"
measurement_label = "CC50 at 24 h"
reported = 28.8

[[record]]
molecule = "CCCCCCCCCCc1ccc(CCC(N)(CO)CO)nc1 [Compound 62]"
measurement_label = "CC50 at 24 h"
reported = 30.9


// recorded CC50 at 24 h for CCCCCCCCCCc1ccc(C(O)CC(N)(CO)CO)cc1 (stereo not drawn) [Compound 55] : 33.9

* * *

Each entry below carries its reported Average inhibition %, planktonic cells viability.
# Test system: A. baumannii NCTC 13423
# Assay Method Text: Antibacterial activity, pre-exposure
# Assay type: cell-based, Acinetobacter baumannii
# Experimental Setup: A. baumannii NCTC 13423, pre-exposure, 25 µM, ± SD
# Procedure: The antimicrobial activity was assessed in a similar way for the initial screening and the dose–response evaluation against different bacterial strains. […] The resazurin staining was performed according to the protocol previously optimized with a few modifications.[46] Briefly, the planktonic solution was first transferred into a new 96-well plate and the OD of the planktonic solution was measured using a Varioskan LUX Multimode microplate reader (Thermo Scientific, Vantaa, Finland). […]
Your answer should be a plain number; it is taken to be in %.

[[record]]
molecule = "CCCCCCCCCCc1ccc(CCC(N)(CO)CO)cc1 [Compound 11]"
reported = 10.3

[[record]]
molecule = "CCCCCCCCc1ccc(CCC(N)(CO)CO)cc1 [fingolimod, Fingolimod]"
reported = 99.5

[[record]]
molecule = "CCCCCCCCCCc1ccc(CCC(N)(CO)CO)nc1 [Compound 62]"
reported = 99.7

[[record]]
molecule = "CCCCCCCCCCc1ccc(C(O)CC(N)(CO)CO)cc1 (stereo not shown) [Compound 55]"
reported = 99.7

[[record]]
molecule = "CCCCCCCCCCc1ccc2nc(CCC(N)(CO)CO)ccc2c1 [Compound 81]"
reported = 2.6


Average inhibition %, planktonic cells viability in this record for CCCCCCCCc1ccc2ccc(CC(N)(CO)CO)nc2c1 [Compound 82] : 99.7

For CCCCCCCCc1ccc2cc(CC(N)(CO)CO)ccc2c1 [Compound 79] the molecule record lists Average inhibition %, planktonic cells viability as 0

Value of measured Average inhibition %, planktonic cells viability for the entry CCCCCCCCc1ccc2nc(CCC(N)(CO)CO)ccc2c1 [Compound 80] : 99.6

// Average inhibition %, planktonic cells viability value for CCCCCc1ccc(-c2ccc(CCC(N)(CO)CO)cc2)cc1 [Compound 15] : 7.8

The reported value for CCCCCCCCc1ccc(C(O)CC(N)(CO)CO)cc1 (stereo not shown) [Compound 54] in terms of Average inhibition %, planktonic cells viability is 3.3

* * *

Record set of MIC for target or system S. aureus P2.
Respond numerically; units are µM and should not be typed.

[[record]]
molecule = "CCCCCCCCCCc1ccc2nc(CC(N)(CO)CO)ccc2c1"
reported = 10

[[record]]
molecule = "CCCCCCCCc1ccc2ccc(CC(N)(CO)CO)nc2c1"
reported = 10

[[record]]
molecule = "CCCCCCCCc1ccc(CCC(N)(CO)CO)cc1"
reported = 15

[[record]]
molecule = "CCCCCCCCc1ccc2cc(CC(N)(CO)CO)ccc2c1"
reported = 10


Let me check: CCCCCCCCCCc1ccc(C(O)CC(N)(CO)CO)cc1 (stereo not drawn) , system S. aureus P2, measured MIC is 10

For `CCCCCCCCc1ccc2nc(CCC(N)(CO)CO)ccc2c1` on S. aureus P2, measured MIC was 10

* * *

# Tested on: S. aureus ATCC 25923
# Assay Method Text: Antibacterial activity, post-exposure on preformed 18-h-old biofilms
# Format: cell-based, Staphylococcus aureus
# Experimental Setup: 200 µM, ± SD
# Protocol: For the post-exposure experiment, bacteria were grown with no compounds in the same conditions for 18 h, after which the media was changed, and compounds were added on the preformed biofilms. […] The resazurin staining was performed according to the protocol previously optimized with a few modifications.[46] […] Fluorescence was measured at λex = 560 nm and λem = 590 nm using the top optics of the Varioskan LUX Multimode microplate reader. […] Fluorescence was measured as described for the planktonic solution. […]
Average inhibition %, biofilms viability under 50% gets Satisfied, anything at or over 50% gets Not satisfied.

Study these solved cases before continuing.
[[record]]
compound = "CCCCCCCCCCc1ccc(CCC(N)(CO)CO)cc1"
classification = "Satisfied"

[[record]]
compound = "CCCCCCCCc1ccc(C(O)CC(N)(CO)CO)cc1 (stereo not shown)"
classification = "Not satisfied"

[[record]]
compound = "CCCCCC/C=C/c1ccc(CCC(N)(CO)CO)cc1"
classification = "Satisfied"


INPUT: Report whether reported Average inhibition %, biofilms viability is lower than 50% (strictly) for `CCCCCCCCc1ccc2nc(CCC(N)(CO)CO)ccc2c1`
OUTPUT: Satisfied

* * *

# Tested on: S. aureus ATCC 25923
# Assay Method Text: Antibacterial activity, pre-exposure (planktonic cells and biofilm formation)
# Format: cell-based, Staphylococcus aureus
# Experimental Setup: pre-exposure, 5 µM, ± SD
Label Yes when Average inhibition %, biofilms viability is strictly below 20%; otherwise label No.

[[record]]
compound = "CCCCCCCCc1ccc2ccc(CC(N)(CO)CO)nc2c1"
classification = "No"


INPUT: # check: Average inhibition %, biofilms viability < 20% for `CCCCCCCCc1ccc2nc(CCC(N)(CO)CO)ccc2c1`
OUTPUT: No

INPUT: Input `CCCCCCCCc1cccc(CCC(N)(CO)CO)c1` ; condition: Average inhibition %, biofilms viability strictly below 20%. Does it hold?
OUTPUT: Yes

INPUT: Given CCCCCCCCc1ccc(C(O)CC(N)(CO)CO)cc1 (stereo not drawn) , is recorded Average inhibition %, biofilms viability strictly lower than 20%?
OUTPUT: No

INPUT: I'd appreciate it if you could check whether CCCCCCCCCCc1ccc(C(O)CC(N)(CO)CO)cc1 (stereo not drawn) has Average inhibition %, biofilms viability smaller than 20%.
OUTPUT: No

INPUT: Input `CCCCCCCCCCOc1ccc(CCC(N)(CO)CO)cc1` ; condition: Average inhibition %, biofilms viability strictly below 20%. Does it hold?
OUTPUT: No

* * *

# System: A. baumannii NCTC 13423
# Assay Method Text: Antibacterial activity, pre-exposure
# Format: cell-based, Acinetobacter baumannii
# Experimental Setup: Acinetobacter baumannii, NCTC13423; A. baumannii NCTC 13423, pre-exposure, 10 µM, ± SD; read-out: Average inhibition %, biofilms biomass
Listed here: items and their measured inhibition at 10 µM.
Response body: numeric value in %, unit text excluded.

Sample records with inhibition at 10 µM:
[[record]]
smiles_str = "CCCCCCCCc1ccc2nc(CCC(N)(CO)CO)ccc2c1"
reported = 1.6

[[record]]
smiles_str = "CCCCCCCCc1ccc2cc(CC(N)(CO)CO)ccc2c1"
reported = 1.7

[[record]]
smiles_str = "CCCCCCCCCCc1ccc2nc(CCC(N)(CO)CO)ccc2c1"
reported = 0

[[record]]
smiles_str = "CCCCCCCCOc1ccc(CCC(N)(CO)CO)cc1"
reported = 0

[[record]]
smiles_str = "CCCCCC/C=C/c1ccc(CCC(N)(CO)CO)cc1"
reported = 2.4


# evaluate next
`CCCCCCCCCCc1ccc(CCC(N)(CO)CO)cc1` tested on A. baumannii NCTC 13423 gave inhibition at 10 µM: 5.1

* * *

# System: S. aureus ATCC 12598
# Assay Method Text: Antibacterial activity, pre-exposure
# Type: cell-based, Staphylococcus aureus
# Experimental Setup: Staphylococcus aureus, ATCC12598; S. aureus ATCC 12598, pre-exposure, 5 µM, ± SD; read-out: Average inhibition %, biofilms biomass
# Method: The antimicrobial activity was assessed in a similar way for the initial screening and the dose–response evaluation against different bacterial strains. […] The resazurin staining was performed according to the protocol previously optimized with a few modifications.[46] Briefly, the planktonic solution was first transferred into a new 96-well plate and the OD of the planktonic solution was measured using a Varioskan LUX Multimode microplate reader (Thermo Scientific, Vantaa, Finland). […]
Threshold check on inhibition at 5 µM: at or above 30% gives 1 (yes), strictly below gives 0 (no).

[[record]]
molecule = "CCCCCCCCc1ccc2ccc(CC(N)(CO)CO)nc2c1 [Compound 82]"
classification = "0 (no)"

[[record]]
molecule = "CCCCCCCCc1ccc2cc(CC(N)(CO)CO)ccc2c1 [Compound 79]"
classification = "1 (yes)"

[[record]]
molecule = "CCCCCCCCCCc1ccc2nc(CCC(N)(CO)CO)ccc2c1 [Compound 81]"
classification = "0 (no)"

[[record]]
molecule = "CCCCCCCCc1ccc2nc(CCC(N)(CO)CO)ccc2c1 [Compound 80]"
classification = "1 (yes)"

[[record]]
molecule = "CCCCCCCCc1ccc(CCC(N)(CO)CO)cc1 [fingolimod, Fingolimod]"
classification = "0 (no)"


API: the following record is the query input.
INPUT: Decide: is the reported value of inhibition at 5 µM for CCCCCCCCCCc1ccc(C(O)CC(N)(CO)CO)cc1 (stereo not drawn) [Compound 55] equal to or greater than 30%?
OUTPUT: 0 (no)
